Reported Bliss excess values for the following compounds.
system: MM1S (Plasma Cell Myeloma); assay: Bliss excess, mean over the matrix (fraction); higher = more synergy;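 further: after 72 h of two-drug dosing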
readout-name: Bliss excess

Cc1nc(Nc2ncc(C(=O)Nc3c(C)cccc3Cl)s2)cc(N2CCN(CCO)CC2)n1 [Dasatinib] + CC(=O)Nc1cccc(-n2c(=O)n(C3CC3)c(=O)c3c(Nc4ccc(I)cc4F)n(C)c(=O)c(C)c32)c1 [Trametinib] (first compound max 2 µM, 7x7, partner max 1 µM): -0.0089
C[C@@H]1COCCN1c1cc(C2([S@](C)(=N)=O)CC2)nc(-c2ccnc3[nH]ccc23)n1 [AZD6738] + O=C(c1cc(Cc2n[nH]c(=O)c3ccccc23)ccc1F)N1CCN(C(=O)C2CC2)CC1 [Olaparib] (first compound max 10 µM, 7x7, partner max 10 µM): -0.0388
CN(CCO)CC[C@H](CSc1ccccc1)Nc1ccc(S(=O)(=O)NC(=O)c2ccc(N3CCC([C@@H](O)c4ccccc4-c4ccc(Cl)cc4)CC3)cc2)cc1S(=O)(=O)C(F)(F)F [AZD4320] + C=CCn1c(=O)c2cnc(Nc3ccc(N4CCN(C)CC4)cc3)nc2n1-c1cccc(C(C)(C)O)n1 [AZD1775] (first compound max 1 µM, partner max 1 µM): 0.0981

* * *

test system: NCI-H2373 (Mesothelioma); experiment: combination Emax (second highest fraction inhibited in the dose matrix, 72 h); higher = more inhibition; extreme values may be limits of the assay
readout-name: combination Emax

Cc1c2c(nn1C)CSCc1cc(n(C)n1)CSc1cc(c3ccccc3c1)OCCCc1c(C(=O)O)n(C)c3c-2c(Cl)ccc13 [AZD5991] + C[C@@H]1COCCN1C2=NC(=NC(=C2)C3(CC3)[S@](=N)(=O)C)C4=C5C=CNC5=NC=C4 [AZD6738] (first compound max 1 µM, 7x7, partner max 10 µM): 0.551
CCc1c2c(nc3ccc(O)cc13)-c1cc3c(c(=O)n1C2)COC(=O)[C@]3(O)CC [SN-38] + O=C(c1cc(Cc2n[nH]c(=O)c3ccccc23)ccc1F)N1CCN(C(=O)C2CC2)CC1 [Olaparib] (first compound max 0.3 µM, 7x7, partner max 10 µM): 0.801
COc1cccc(OCCCN)c1-c1cc(Nc2cnc(C#N)cn2)n[nH]1 [Prexasertib] + C=CCn1c(=O)c2cnc(Nc3ccc(N4CCN(C)CC4)cc3)nc2n1-c1cccc(C(C)(C)O)n1 [AZD1775] (first compound max 1 µM, partner max 1 µM): 0.497
Cc1cc2ncnn2cc1Nc1ncc2c(n1)n(C1CCOCC1)c(=O)n2C [AZD7648] + C=CCn1c(=O)c2cnc(Nc3ccc(N4CCN(C)CC4)cc3)nc2n1-c1cccc(C(C)(C)O)n1 [AZD1775] (first compound max 10 µM, partner max 1 µM): 0.484
COc1cccc(OCCCN)c1-c1cc(Nc2cnc(C#N)cn2)n[nH]1 [Prexasertib] + CN(C)CCCOc1ccc(-c2ccc3ncc4c(c3c2)n(C2CCOCC2)c(=O)n4C)cn1 [AZD0156] (first compound max 1 µM, 7x7, partner max 1 µM): 0.423
CC(=O)Nc1cccc(-n2c(=O)n(C3CC3)c(=O)c3c(Nc4ccc(I)cc4F)n(C)c(=O)c(C)c32)c1 [Trametinib] + Cc1nc(-c2cn3c(n2)-c2ccc(-c4cnn(C(C)(C)C(N)=O)c4)cc2OCC3)n(C(C)C)n1 [Taselisib] (first compound max 1 µM, 7x7, partner max 10 µM): 0.766
Cc1c2c(nn1C)CSCc1cc(n(C)n1)CSc1cc(c3ccccc3c1)OCCCc1c(C(=O)O)n(C)c3c-2c(Cl)ccc13 [AZD5991] + C[C@@H](Nc1cc(F)cc(F)c1)c1cc(C(=O)N(C)C)cc2c(=O)cc(N3CCOCC3)oc12 [AZD8186] (first compound max 1 µM, 7x7, partner max 3 µM): 0.287
